Tested on: HepG2
Test: cell viability relative to DMSO; higher = less toxic
Conditions: 72 h; 1000 nM
Measurement Label: cell viability (%)

NC(=O)C[C@H](N)C(=O)O :: 105
c1ccc(-c2nc(CN3CCN(c4ncccn4)CC3)c[nH]2)cc1 :: 101
CCc1cn([C@H]2C[C@H](O)[C@@H](CO)O2)c(=O)[nH]c1=O :: 87.4
CC(C(=O)O)c1ccc2c(c1)[nH]c1ccc(Cl)cc12 (stereo not given) :: 96.5
COc1cc2c(N3CCN(C(=O)Nc4ccc(OC(C)C)cc4)CC3)ncnc2cc1OCCCN1CCCCC1 :: 109

* * *

System: HepG2
Experiment: relative viability EC50 (midpoint between 100% and the lowest measured viability); higher = less toxic
Details: 72 h
Measurement Label: relative viability EC50

CS(=O)(=O)N(Cc1ccco1)C[C@@H](O)Cn1c2ccccc2c2ccccc21 :: > 10 µM
C[C@@]12C[C@@]3(O)O[C@@H](O1)[C@]1(COC(=O)c4ccccc4)[C@H]3C[C@@]12O[C@@H]1O[C@H](CO)[C@@H](O)[C@H](O)[C@H]1O :: > 10 µM
O=C(OC(C(F)(F)F)C(F)(F)F)N1CCN(Cc2cccc(Oc3ccccc3)c2)CC1 :: > 10 µM
O=C1CCC[C@@H]2[C@H]3CCCN4CCC[C@@H](CN12)[C@@H]34 :: > 10 µM
Cc1ccc2c(c1)C(=O)[C@]1(O)CCN(c3ccccc3)C1=N2 (racemic) [blebbistatin-(+/-)] :: > 10 µM
Cc1ccc(-c2ncn(-c3ccc(Nc4nccc(-c5cccc(N6CCOCC6)c5)n4)cc3)n2)cn1 :: 3.04 µM
CC(CNC(=O)c1cccnc1)NC(=O)c1cccnc1 (centres undefined) :: > 10 µM
COP(=O)(OC)OC(c1ccc(Cl)cc1)P(=O)(OC)OC (centres undefined) [mifobate] :: > 10 µM
CS(=O)(=O)c1ccc(Oc2cc(F)cc(C#N)c2)c2c1[C@H](O)C(F)(F)C2 :: > 10 µM
CC[N+](CC)(CCCNC1=CC(=O)C(NCCC[N+](CC)(CC)Cc2ccccc2)=CC1=O)Cc1ccccc1 [benzoquinonium-dibromide] :: > 10 µM
CC(C)(C)c1cc(/C=C(\C#N)C(N)=S)cc(C(C)(C)C)c1O :: 3.56 µM
Cc1ccnc(NC(=O)C(C)c2cccc(C(=O)c3ccccc3)c2)c1 (centres undefined) :: > 10 µM
O=C(NNC(=O)c1ccc(CNS(=O)(=O)c2ccc(F)c(Cl)c2)cc1)c1ccccc1 :: > 10 µM
Cc1cc(O)c(-c2ccc([C@@H](C)CN)cc2)c2c1[nH]c(=O)c1sccc12 :: 0.0917 µM
CCCc1c(OCCCCc2nnn[nH]2)ccc(C(C)=O)c1O :: > 10 µM
CC(=O)O/N=C1\C(=O)N(Cc2cc(Cl)ccc2Cl)c2ccc(Cl)cc21 :: > 10 µM
CCN1C(C)(C)CC(Oc2ccc(C(=O)Nc3ccc(NC(=O)Nc4cc(C(C)(C)C)on4)cc3)nc2)CC1(C)C :: > 10 µM
C[C@H](CS)C(=O)N1CCC[C@H]1C(=O)O :: > 10 µM
CN1C(=O)C(N2CCCCC2)S/C1=C\C(=O)O (centres undefined) :: > 10 µM
CCCCOc1ccc(OCCCN2CCOCC2)cc1 :: > 10 µM
CS(=O)(=O)c1ccc([C@@H](O)[C@@H](CF)NC(=O)C(Cl)Cl)cc1 :: 2.11 µM
FC(F)(F)c1cc(CO[C@H]2CCCN[C@H]2c2ccccc2)cc(C(F)(F)F)c1 :: > 10 µM
CN1C(=O)OC(C)(C)C1=O :: > 10 µM
Nc1ccc(C(=O)NCC(=O)O)cc1 :: > 10 µM
CCCN1CCC[C@@H]2Cc3nc(N)ncc3C[C@H]21 :: > 10 µM
CCCCCCCCCCCCCCCC(=O)OC(CC(=O)[O-])C[N+](C)(C)C (centres undefined) :: > 10 µM
COc1cccc(OCCCN)c1-c1cc(Nc2cnc(C#N)cn2)n[nH]1 :: 0.0431 µM
COC(=O)C1=C(C)NC(C)=C(C(=O)OCC(C)C)C1c1ccccc1[N+](=O)[O-] (centres undefined) :: 2.1 µM
NC1=N[C@@]2(c3cc(NC(=O)c4ccc(F)cn4)ccc3F)COC[C@H]2CS1 :: > 10 µM
C[C@]12CC[C@@H]3c4ccc(O)cc4C[C@@H](CCCCCCCCC[S+]([O-])CCCC(F)(F)C(F)(F)F)[C@H]3[C@@H]1CC[C@@H]2O (some centres undefined) :: > 10 µM
OC(c1cc(C(F)(F)F)nc2c(C(F)(F)F)cccc12)C1CCCCN1 (centres undefined) :: 2.21 µM
O=c1c(-c2ccc(O)cc2)coc2c([C@@H]3O[C@H](CO)[C@@H](O)[C@H](O)[C@H]3O)c(O)ccc12 :: > 10 µM
CC[C@H](CC[C@@H](C)[C@H]1CC[C@H]2[C@@H]3CC=C4C[C@@H](O[C@@H]5O[C@H](CO)[C@@H](O)[C@H](O)[C@H]5O)CC[C@]4(C)[C@H]3CC[C@]12C)C(C)C :: > 10 µM
C#CCN(C)Cc1ccccc1 :: > 10 µM

* * *

# drug-induced phospholipidosis listing for each entry below
Tested on: A549-ACE2
Assay: drug-induced phospholipidosis relative to tamoxifen; higher = more phospholipidosis
Details: 6.66667 µM; 24 h
Measurement Label: drug-induced phospholipidosis (%)

O=C(CN1C2=NCCN2c2ccccc21)c1ccc(-c2ccccc2)cc1 :: 46.9
c1ccc2c(CCNc3ccc(Nc4ccncc4)cc3)c[nH]c2c1 [serdemetan] :: 59.1
CN(C)CCOc1ccc(/C(=C(/CCCl)c2ccccc2)c2ccccc2)cc1 [toremifene] :: 115
O=C(OC(C(F)(F)F)C(F)(F)F)N1CCN(Cc2cccc(Oc3ccccc3)c2)CC1 [JW-642] :: 46.5

* * *

Test system: HepG2
Experiment: drug sensitivity score (DSS) for viability; higher = more toxic; extreme values may be limits of the assay
Conditions: 72 h
Each entry below carries its reported drug sensitivity score.
Measurement Label: drug sensitivity score

CC(C)[C@@H](C)/C=C/[C@@H](C)[C@H]1CC[C@H]2/C(=C/C=C3\C[C@@H](O)CC[C@@H]3C)CCC[C@]12C [dihydrotachysterol] :: 0
CC(C)(C)NC[C@H](O)c1ccc(O)cc1Cl :: 0
C[S+]([O-])CCCCN=C=S (stereo unspecified) :: 4.1
Cc1[nH]c2ccccc2c1CCNC(=O)c1cccs1 :: 0
Cc1c(I)c(=O)n(-c2ccccc2)n1C [iodoantipyrine] :: 0
O=c1c(-c2ccc(O)cc2)coc2c([C@@H]3O[C@H](CO)[C@@H](O)[C@H](O)[C@H]3O)c(O)ccc12 [puerarin] :: 0
CC[N+](CC)(CCCNC1=CC(=O)C(NCCC[N+](CC)(CC)Cc2ccccc2)=CC1=O)Cc1ccccc1 [benzoquinonium-dibromide] :: 0
CC(=O)O/N=C1\C(=O)N(Cc2cc(Cl)ccc2Cl)c2ccc(Cl)cc21 :: 0
COc1ccc(NC(=O)c2ccc(C(=N)N(C)C)cc2)c(C(=O)Nc2ccc(Cl)cn2)c1 :: 0
COc1cc2c(cc1OC)C1CC(=O)C(CC(C)C)CN1CC2 (stereo unspecified) :: 0
O=[N+]([O-])c1cn2c(n1)OC[C@@H](OCc1ccc(-c3ccc(OC(F)(F)F)cc3)nc1)C2 :: 0
c1ccc(CCCCN2CCC(c3ccccc3)CC2)cc1 :: 1.6
Nc1n[n+]([O-])c2ccccc2[n+]1[O-] :: 2.8
CN(NC(=O)CC(=O)NN(C)C(=S)c1ccccc1)C(=S)c1ccccc1 :: 9.7
O=C(CCCN1CC=C(n2c(=O)[nH]c3ccccc32)CC1)c1ccc(F)cc1 :: 0
CCN(CC)CCN(Cc1ccc(-c2ccc(C(F)(F)F)cc2)cc1)C(=O)Cn1c(SCc2ccc(F)cc2)nc(=O)c2c1CCC2 :: 5.5
CO[C@H]1O[C@@H]2O[C@@]3(C)CC[C@H]4[C@H](C)CC[C@@H]([C@H]1C)[C@@]24OO3 :: 0.4
COCCOc1ccc2c(c1)ncn2-c1ccc2cccc(N3CCC(N)CC3)c2n1 :: 6.1
O=C(O)CCc1cc(C(=O)c2ccc(OC3CCCC3)cc2O)ccc1OCc1ccc2c(O)noc2c1 :: 0
Cc1c(C)c2c(c(C)c1OC(=O)CCC(=O)O)CC[C@@](C)(CCC[C@H](C)CCC[C@H](C)CCCC(C)C)O2 [D-alpha-tocopheryl-succinate] :: 0
COc1ccc(C2CNC(=O)C2)cc1OC1CCCC1 (stereo unspecified) :: 0
NC(N)=Nc1nc(CSCCN/C=N/S(=O)(=O)c2ccc(Br)cc2)cs1 :: 0.5
N#Cc1ccccc1OCC(O)CNCCNC(=O)Nc1ccccc1 (stereo unspecified) :: 0
Nc1ccc(C(=O)NCC(=O)O)cc1 :: 0
COc1ccc2c(NC(=O)Nc3cccc(C(F)(F)F)n3)ccnc2c1 :: 0
CC(C)(C)OC(=O)c1ncn2c1[C@@H]1CCCN1C(=O)c1c(Br)cccc1-2 :: 0
